Assay target: FPRL1 (Homo sapiens, UniProt P25090)
Construct: expressed in transfected cells; host or cells: CHO-Gal6 (CHO cells with G alpha 16)
Assay: compound-induced calcium activity on FLIPR Tetra in CHO-Gal6 cells stably expressing FPRL1
Assay type: cell-based
Measurement setup: relative efficacy, calcium, FLIPR Tetra
Outcome measure: FPRL1 (rel. eff.)

(I) CC(C)NC(=O)[C@@H]1[C@H](C(=O)Nc2ccc(Br)cc2)[C@@H]2CC[C@H]1C21CC1 (racemic)
(II) NS(=O)(=O)c1ccc(NC(=O)C2C(C(=O)O)C3C=CC2C32CC2)cc1 (racemic)
Could you kindly indicate whether I or II has the higher FPRL1 (rel. eff.) value? Give the label under which the chosen entry appears.
I
(I: 1.0, II: 0.51)

(a) CC1(C)[C@@H]2CC[C@H]1[C@@H](C(=O)Nc1ccc(Br)cc1)[C@H]2C(=O)O (racemic)
(b) N=C[C@@H]1[C@H](C(=O)Nc2ccccc2)[C@@H]2CC[C@H]1C21CC1 (racemic)
Could you kindly indicate whether a or b has the higher FPRL1 (rel. eff.) value? Give the label under which the chosen entry appears.
a

* * *

Assay target: FPR1 (Homo sapiens)
Construct: expressed in transfected cells; host or cells: HEK-Gqi5 (HEK cells with chimeric G protein Gqi5)
Sequence (P21462 whole entry, species assumed): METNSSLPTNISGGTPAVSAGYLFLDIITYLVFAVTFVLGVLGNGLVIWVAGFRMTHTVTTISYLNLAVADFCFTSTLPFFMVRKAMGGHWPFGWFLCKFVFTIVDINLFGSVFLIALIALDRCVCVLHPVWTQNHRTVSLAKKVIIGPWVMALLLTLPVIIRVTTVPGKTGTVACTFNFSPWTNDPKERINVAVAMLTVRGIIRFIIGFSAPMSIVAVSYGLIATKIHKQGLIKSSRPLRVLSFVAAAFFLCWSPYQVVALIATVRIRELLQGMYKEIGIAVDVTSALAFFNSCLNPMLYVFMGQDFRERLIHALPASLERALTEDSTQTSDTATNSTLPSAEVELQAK
Assay: compound-induced calcium activity on FLIPR Tetra in HEK-Gqi5 cells stable expressing FPR1
Assay type: cell-based
Measurement setup: calcium, FLIPR Tetra, tested 0.61 to 10,000 nM, read-out: FPR1 EC50
Outcome measure: EC50 (µM)

(a) O=C(O)[C@@H]1[C@H](C(=O)Nc2ccc(I)cc2)[C@@H]2CC[C@H]1C21CC1 (racemic)
(b) CC(C)=C1C2CCC1C(C(=O)Nc1ccc(Br)cc1)C2C(=O)O (racemic)
(c) O=C(O)C1C(C(=O)Nc2ccc(Br)cc2)C2CCC1C21CC1 (single isomer, unassigned) [Compound 10B]
Place the items in sequence of falling EC50. // rank by listing labels in the order requested
b, c, a

* * *

Assay target: FPRL1 (Homo sapiens, UniProt P25090)
Construct: expressed in transfected cells; host or cells: CHO-Gal6 (CHO cells with G alpha 16)
Assay: compound-induced calcium activity on FLIPR Tetra in CHO-Gal6 cells stably expressing FPRL1
Format: cell-based
Measurement setup: calcium, FLIPR Tetra, tested 0.61 to 10,000 nM, read-out: FPRL1 EC50
Method: CHO-Gal6 cells stably expressing FPRL1 were cultured in (F12, 10% FBS, 1% PSA, 400 μg/ml geneticin and 50 μg/ml hygromycin) and HEK-Gqi5 cells stable expressing FPR1 were cultured in (DMEM high glucose, 10% FBS, 1% PSA, 400 μg/ml geneticin and 50 μg/ml hygromycin). In general, the day before the experiment, 18,000 cells/well were plated in a 384-well clear bottom poly-d-lysine coated plate. […] Results are expressed as EC50 (nM) and efficacy values.
Outcome measure: EC50 (nM)

Example results:
> print(dat)
                                   molecule  outcome.measure  measurement
1  N=C[C@@H]1[C@H](C(=O)Nc2ccccc2)[C@@H]2CC[C@H]1C21CC1 (racemic) [Compound 93]             EC50         5810
2  CC(C)OC(=O)[C@@H]1[C@H](C(=O)Nc2ccc(Br)cc2)[C@@H]2CC[C@H]1C21CC1 (racemic) [Compound 86]             EC50         2110
3  O=C(O)[C@@H]1[C@H](C(=O)Nc2ccc(Cl)c(Cl)c2)[C@@H]2CC[C@H]1C21CC1 (racemic) [Compound 38]             EC50          498
4  O=C(OCc1ccccc1)[C@@H]1[C@H](C(=O)Nc2ccc(Br)cc2)[C@@H]2CC[C@H]1C21CC1 (racemic) [Compound 85]             EC50         2140

(P) O=C(O)C1C(C(=O)Nc2ccc(OC(F)(F)F)cc2)C2C=CC1C21CC1 (racemic) [Compound 34]
(Q) NS(=O)(=O)c1ccc(NC(=O)C2C(C(=O)O)C3C=CC2C32CC2)cc1 (racemic) [Compound 8]
(R) O=C(Nc1ccc(Br)cc1)[C@H]1[C@@H](C=NO)[C@H]2CC[C@@H]1C21CC1 (racemic) [Compound 92]
Hey, can you sort those molecules up there by EC50, smallest first? // rank by listing labels in the order requested
P, Q, R
(P: 585 nM, Q: 2710 nM, R: 4380 nM)

* * *

Assay target: FPRL1 (Homo sapiens, UniProt P25090)
Construct: expressed in transfected cells; host or cells: CHO-Gal6 (CHO cells with G alpha 16)
Sequence (P25090 1-351): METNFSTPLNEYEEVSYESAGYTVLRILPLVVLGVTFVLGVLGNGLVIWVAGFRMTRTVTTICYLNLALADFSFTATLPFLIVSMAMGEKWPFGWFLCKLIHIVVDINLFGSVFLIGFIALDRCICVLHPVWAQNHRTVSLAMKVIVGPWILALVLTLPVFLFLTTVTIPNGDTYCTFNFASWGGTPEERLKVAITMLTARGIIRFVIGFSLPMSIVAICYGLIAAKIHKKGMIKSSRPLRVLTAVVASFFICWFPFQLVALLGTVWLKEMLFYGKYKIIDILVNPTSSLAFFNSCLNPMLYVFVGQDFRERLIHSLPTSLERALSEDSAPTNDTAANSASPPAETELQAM
Assay: compound-induced calcium activity on FLIPR Tetra in CHO-Gal6 cells stably expressing FPRL1
Type: cell-based
Measurement setup: relative efficacy, calcium, FLIPR Tetra
Procedure: CHO-Gal6 cells stably expressing FPRL1 were cultured in (F12, 10% FBS, 1% PSA, 400 μg/ml geneticin and 50 μg/ml hygromycin) and HEK-Gqi5 cells stable expressing FPR1 were cultured in (DMEM high glucose, 10% FBS, 1% PSA, 400 μg/ml geneticin and 50 μg/ml hygromycin). In general, the day before the experiment, 18,000 cells/well were plated in a 384-well clear bottom poly-d-lysine coated plate. […] Results are expressed as EC50 (nM) and efficacy values.
Outcome measure: FPRL1 (rel. eff.)

Example results:
> print(dat)
                                   compound    outcome.measure  measurement
1  COc1ccccc1NC(=O)[C@H]1[C@@H](C(=O)O)[C@H]2CC[C@@H]1C21CC1 (racemic)  FPRL1 (rel. eff.)          1.2
2  O=C1[C@@H]2[C@H](C(=O)N1c1ccc(Br)cc1)[C@@H]1CC[C@H]2C12CC2  FPRL1 (rel. eff.)         0.38
3  CSc1ccc(NC(=O)C2C(C(=O)O)C3C=CC2C32CC2)cc1 (racemic)  FPRL1 (rel. eff.)         0.85
4  CCc1ccc(NC(=O)[C@H]2[C@@H](C(=O)O)[C@H]3CC[C@@H]2C32CC2)cc1 (racemic)  FPRL1 (rel. eff.)         0.79
5  CCc1ccc(NC(=O)C2C(C(N)=O)C3C=CC2C32CC2)cc1 (racemic) [Compound 66]  FPRL1 (rel. eff.)         0.79

(P) O=C(Nc1ccccc1)[C@H]1[C@@H](C=NO)[C@H]2CC[C@@H]1C21CC1 (racemic)
(Q) COc1ccccc1NC(=O)C1C(C(=O)O)C2C=CC1C21CC1 (racemic)
Between item P and item Q , which reported FPRL1 (rel. eff.) is smaller? Give the label under which the chosen entry appears.
P

* * *

Assay target: FPRL1 (Homo sapiens)
Construct: expressed in transfected cells; host or cells: CHO-Gal6 (CHO cells with G alpha 16)
Assay: compound-induced calcium activity on FLIPR Tetra in CHO-Gal6 cells stably expressing FPRL1
Assay type: cell-based
Measurement setup: relative efficacy, calcium, FLIPR Tetra
Outcome measure: FPRL1 (rel. eff.)

> print(dat)
                                   molecule    outcome.measure  measurement
1  CSc1ccc(NC(=O)[C@H]2[C@@H](C(N)=O)[C@H]3CC[C@@H]2C32CC2)cc1 (racemic) [Compound 53]  FPRL1 (rel. eff.)         0.86
2  CC(C)OC(=O)C1C(C(=O)Nc2ccc(I)cc2)C2C=CC1C21CC1 (racemic) [Compound 18]  FPRL1 (rel. eff.)         0.72
3  O=C(Nc1ccc(Br)cc1)C1C(CO)C2C=CC1C21CC1 (racemic) [Compound 58]  FPRL1 (rel. eff.)         0.91
4  NC(=O)[C@@H]1[C@H](C(=O)Nc2ccc(I)cc2)[C@@H]2CC[C@H]1C21CC1 (racemic) [Compound 62]  FPRL1 (rel. eff.)         0.89
5  O=C(OCc1ccccc1)[C@@H]1[C@H](C(=O)Nc2ccc(Br)cc2)[C@@H]2CC[C@H]1C21CC1 (racemic) [Compound 85]  FPRL1 (rel. eff.)         0.88
6  CSc1ccc(NC(=O)C2C(C(N)=O)C3C=CC2C32CC2)cc1 (racemic) [Compound 49]  FPRL1 (rel. eff.)         0.90
7  CSc1ccc(NC(=O)[C@H]2[C@@H](C(N)=O)[C@H]3CC[C@@H]2C3(C)C)cc1 (racemic) [Compound 64]  FPRL1 (rel. eff.)          0.9
